Recorded pKd, one value per entry.
Experimental system: T1, huFc fused dimeric human Tim3-ECD (human, UniProt Q8TDQ0 22-202)
T1 construct: also called huTim3Fc; bivalent Tim3
Experiment summary: SPR Biacore, antibody captured by anti-mouse IgG
pKd: −log10 of the molar value.
Parameter: pKd

{"columns": ["Binder", "Parameter", "Numeric readout"],
 "data": [
  ["Tim3_0021 (antibody, V domains shown) VH: QVQLQQSGPQLVRPGASVQISCKASGYSFTSYLLHWLKQRPGQGLEWIGMIDPSDSETRLNQKFKDKATLTVDKSSSTAYMQLSSPTSEDSAVYYCARDGYYAWYYFDCWGQGTTLTVSS VL: DIVLTQSPATLSVTPGDRVSLSCRASQSIGNNLHWYQQKSHESPRLLIKYASHSISGIPSKFSGTGSGTDFTLSFNSVETEDFGMYFCQQSNSWPLTFGAGTKLELK", "pKd", 8.39],
  ["Tim3_0033 (antibody, V domains shown) VH: QGQMHQSGAELVKPGSSVKLSCKTSGFTFSSSFISWLKQKPGQSLEWIAWIYAATGSTSYNQKFTNKAQLTVDTSSSAAYMQFSSLTTEDSAIYYCARHAGYPHYYAMDYWGQGTSVTVSS VL: DIQMTQSPASLSASVGETVTITCRASENIFSNLAWYQQKQGKSPQLLVYSATNLGDGVPSRFSGSGSGTQFSLKINSLQPEDFGNYYCQHFYKIPFTFGTGTKLEIK", "pKd", 8.52],
  ["Tim3_0016 variant (Tim3_0018) (antibody, V domains shown, also called TIM3-0016 variant (0018); aTim3 0018) VH: QVTLKESGPGILQPSQTLSLTCSFSGFSLSTSGMSVGWIRQPSGKGLEWLAHIWLNDDVFFNPALKRRLTISKDTSNNQVFLQIASVVTADTATYYCVRANGYLYALDYWGQGISVTVSS VL: QIVLTQSPAIMSASPGQKVTITCSASSSVNYTQWYQQKLGSSPKLWIYDAFKLAPGVPARFSGSGTGTSYSLTISSMEAEDAASYFCHQWSSYPWTFGGGTKLEIK", "pKd", 8.95],
  ["Tim3_0026 (antibody, V domains shown) VH: QIQLVQSGPELKKPGETVKISCKASGYTFTDYSMHWVKQAPGRGLKWMGYINTETYEPTFGADFKGRFAFSLDTSATTAYLQINSLKTEDTATFFCGGGGYPAYWGQGTVVIVSA VL: DVLMTQTPLSLPVSLGDQASISCRSSRTILHSSGNTYLEWYLQKPGQSPKLLIYKVSNRFSGVPDRFSGSGSGTDFTLNISRVEAEDLGVYYCFQDSHVPFTFGTGTKLEIK", "pKd", 8.82],
  ["Tim3_0030 (antibody, V domains shown) VH: QIQLVQSGPELKKPGETVKISCKASGYPFSEYSIHWVKQAPGKGLKWMVYVNTETGQPIVGDDFRGRFVLSLETSASTAYLQINNLKNEDTATYFCGGGGYPAYWGQGTLVTVSA VL: DVLMTQTPLSLPVSLGDQASISCRSSRSIVHSSGNTYLEWYLQKPGQSPKLLIYKVSNRFSGVPDRFSGSGSGTDFTLNISRVEAEDLGVYYCFQDSHVPFTFGTGTKLEIK", "pKd", 8.89]
]}
